Test system: chymotryptic-like activity of isolated 20S constitutive proteasome vs immunoproteasome
Assay: Enzyme kinetic assay with isolated 20S proteasome preps, EC50 ratio of CT-L activity (20S ratio)
Assay type: biochemical
Conditions: constitutive proteasome to immunoproteasome, >1 = prefers immunoproteasome
outcome-measure: 20 S ratio (const:immuno)

| compound | reported-result |
| --- | --- |
| CC(NC(=O)OCc1ccccc1)C(=O)N[C@@H](Cc1c[nH]c2ccccc12)C(=O)N[C@@H](Cc1ccccc1)C(=O)C1(C)CO1 (some centres unmarked) | >1.0 |
| CC(C)C[C@H](NC(=O)OCc1ccccc1)C(=O)N[C@H](CC(C)C)C(=O)N[C@@H](Cc1ccccc1)C(=O)C1(C)CO1 (some centres unmarked) | <0.5 |
| CC(NC(=O)OCc1ccccc1)C(=O)N[C@@H](Cc1ccc(C(F)(F)F)cc1)C(=O)N[C@@H](Cc1ccccc1)C(=O)C1(C)CO1 (some centres unmarked) | >5.0 |
| CC(NC(=O)OCc1ccccc1)C(=O)N[C@@H](Cc1ccccc1)C(=O)N[C@@H](C)C(=O)C1(C)CO1 (some centres unmarked) | <0.5 |
| COc1ccc(C[C@H](NC(=O)C(C)NC(=O)OCc2ccccc2)C(=O)N[C@@H](Cc2ccc(O)cc2)C(=O)C2(C)CO2)cc1 (some centres unmarked) [drawing 67] | >5.0 |
| Cc1ccc(C[C@H](NC(=O)[C@H](C)NC(=O)OCc2ccccc2)C(=O)N[C@@H](Cc2ccccc2)C(=O)C2(C)CO2)cc1 (some centres unmarked) | >2.0 |
| CC[C@@H](NC(=O)OCc1ccccc1)C(=O)N[C@@H](Cc1ccccc1)C(=O)N[C@@H](Cc1ccccc1)C(=O)C1(C)CO1 (some centres unmarked) | >5.0 |
| CC(C)C[C@H](NC(=O)[C@H](Cc1c[nH]c2ccccc12)NC(=O)[C@H](C)NC(=O)OCc1ccccc1)C(=O)C1(C)CO1 (some centres unmarked) | <0.5 |
| C[C@H](NC(=O)OCc1ccccc1)C(=O)N[C@@H](Cc1c[nH]c2ccccc12)C(=O)N[C@@H](C)C(=O)C1(C)CO1 (some centres unmarked) | <0.5 |
| CC(NC(=O)OCc1ccccc1)C(=O)N[C@@H](Cc1cccs1)C(=O)N[C@@H](Cc1ccccc1)C(=O)C1(C)CO1 (some centres unmarked) | >2.0 |
| CC(NC(=O)OCc1ccccc1)C(=O)N[C@@H](Cc1csc2ccccc12)C(=O)N[C@@H](Cc1ccccc1)C(=O)C1(C)CO1 (some centres unmarked) | >1.0 |
| CC(NC(=O)OCc1ccccc1)C(=O)N1Cc2ccccc2C[C@@H]1C(=O)N[C@@H](Cc1ccccc1)C(=O)C1(C)CO1 (some centres unmarked) | <1.0 |
| CC1(C(=O)[C@H](Cc2ccccc2)NC(=O)[C@H](Cc2c[nH]c3ccccc23)NC(=O)C(CSCc2ccccc2)NC(=O)OCc2ccccc2)CO1 (some centres unmarked) | >2.0 |
| CC1(C(=O)[C@H](Cc2ccccc2)NC(=O)[C@H](Cc2ccccc2)NC(=O)CNC(=O)OCc2ccccc2)CO1 (some centres unmarked) | >3.0 |
| COc1ccc(C[C@H](NC(=O)C(C)NC(=O)OCc2ccccc2)C(=O)N[C@@H](Cc2ccc(O)cc2)C(=O)C2(C)CO2)cc1 (some centres unmarked) [drawing 65] | >5.0 |
| CC(NC(=O)OCc1ccccc1)C(=O)N[C@@H](Cc1ccccc1)C(=O)N[C@H](C(=O)C1(C)CO1)c1ccccc1 (some centres unmarked) | >1.0 |
| CC(NC(=O)OCc1ccccc1)C(=O)N[C@@H](Cc1ccccc1)C(=O)N[C@@H](CCc1ccccc1)C(=O)C1(C)CO1 (some centres unmarked) | >2.0 |

----------
Target: 26S proteasome CT-L activity in lysate of HT29 (constitutive) vs Sultan/Thp1 (immunoproteasome) cells (Homo sapiens, UniProt P28062+P28074)
Construct: using 26S proteasome in the context of a cell lysate; endogenous in cells; host or cells: HT29 lysate (constitutive); Sultan or THP1 lysate (immunoproteasome)
Sequence (P28074 60-263): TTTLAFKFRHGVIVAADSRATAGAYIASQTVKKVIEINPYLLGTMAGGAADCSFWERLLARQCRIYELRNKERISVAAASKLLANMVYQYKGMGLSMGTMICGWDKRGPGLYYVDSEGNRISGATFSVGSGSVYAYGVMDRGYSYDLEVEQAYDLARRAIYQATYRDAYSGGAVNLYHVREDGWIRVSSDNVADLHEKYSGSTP
Sequence (P28062 73-276): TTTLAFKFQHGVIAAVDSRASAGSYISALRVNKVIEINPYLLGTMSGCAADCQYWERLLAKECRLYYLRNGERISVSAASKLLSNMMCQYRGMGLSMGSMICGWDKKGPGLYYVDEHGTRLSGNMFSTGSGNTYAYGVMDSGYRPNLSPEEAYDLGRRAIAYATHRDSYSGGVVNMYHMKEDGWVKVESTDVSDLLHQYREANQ
Test: CT-L EC50 with 26S proteasome in cell lysate (Lysate ratio)
Format: biochemical
Settings: HT29 lysate to Sultan/Thp1 lysate, >1 = prefers immunoproteasome
A collection of molecules and their measured Lysate ratio (HT29:Sultan/Thp1)
outcome-measure: Lysate ratio (HT29:Sultan/Thp1)

| molecule | reported-result |
| --- | --- |
| Cc1ccc(C[C@H](NC(=O)[C@H](C)NC(=O)OCc2ccccc2)C(=O)N[C@@H](Cc2ccccc2)C(=O)C2(C)CO2)cc1 (stereo partly shown) | >5.0 |
| CC1(C(=O)[C@H](Cc2ccccc2)NC(=O)[C@H](Cc2c[nH]c3ccccc23)NC(=O)C(CSCc2ccccc2)NC(=O)OCc2ccccc2)CO1 (stereo partly shown) | >3.0 |
| C[C@H](NC(=O)OCc1ccccc1)C(=O)N[C@@H](Cc1ccc(C(C)(C)C)cc1)C(=O)N[C@@H](Cc1ccccc1)C(=O)C1(C)CO1 (stereo partly shown) | >2.0 |
| CC1(C(=O)[C@H](Cc2ccccc2)NC(=O)[C@H](Cc2ccccc2)NC(=O)CNC(=O)OCc2ccccc2)CO1 (stereo partly shown) | >5.0 |

----------
Biological target: 26S proteasome CT-L activity in lysate of HT29 (constitutive) vs Sultan/Thp1 (immunoproteasome) cells (Homo sapiens, UniProt P28062+P28074)
Construct: using 26S proteasome in the context of a cell lysate; endogenous in cells; host or cells: HT29 lysate (constitutive); Sultan or THP1 lysate (immunoproteasome)
Assay: CT-L EC50 with 26S proteasome in cell lysate (Lysate ratio)
Assay type: biochemical
Conditions: HT29 lysate to Sultan/Thp1 lysate, >1 = prefers immunoproteasome
outcome-measure: Lysate ratio (HT29:Sultan/Thp1)

| molecule | reported-result |
| --- | --- |
| CC(C)C[C@H](NC(=O)[C@H](Cc1ccccc1)NC(=O)C(C)NC(=O)OCc1ccccc1)C(=O)C1(C)CO1 (stereo partly drawn) | <0.5 |
| COc1ccc(C[C@H](NC(=O)C(C)NC(=O)OCc2ccccc2)C(=O)N[C@@H](Cc2ccccc2)C(=O)C2(C)CO2)cc1 (stereo partly drawn) [drawing 86] | >2.0 |
| COc1ccc(C[C@H](NC(=O)C(C)NC(=O)OCc2ccccc2)C(=O)N[C@@H](Cc2ccc(O)cc2)C(=O)C2(C)CO2)cc1 (stereo partly drawn) [drawing 67] | >3.0 |
| CC(C)C[C@H](NC(=O)OCc1ccccc1)C(=O)N[C@@H](Cc1ccccc1)C(=O)N[C@@H](CC(C)C)C(=O)C1(C)CO1 (stereo partly drawn) | <0.5 |
| CC[C@@H](NC(=O)OCc1ccccc1)C(=O)N[C@@H](Cc1ccccc1)C(=O)N[C@@H](Cc1ccccc1)C(=O)C1(C)CO1 (stereo partly drawn) | >5.0 |
| CC(NC(=O)OCc1ccccc1)C(=O)N1Cc2ccccc2C[C@@H]1C(=O)N[C@@H](Cc1ccccc1)C(=O)C1(C)CO1 (stereo partly drawn) | <1.0 |
| C[C@H](NC(=O)OCc1ccccc1)C(=O)N[C@@H](Cc1ccc(C#N)cc1)C(=O)N[C@@H](Cc1ccccc1)C(=O)C1(C)CO1 (stereo partly drawn) | >2.0 |
| CC1(C(=O)[C@H](Cc2ccccc2)NC(=O)[C@H](Cc2c[nH]c3ccccc23)NC(=O)[C@H](CC(N)=O)NC(=O)OCc2ccccc2)CO1 (stereo partly drawn) | >5.0 |
| CC1(C(=O)[C@H](Cc2ccccc2)NC(=O)[C@H](Cc2ccccc2)NC(=O)[C@H](Cc2c[nH]cn2)NC(=O)OCc2ccccc2)CO1 (stereo partly drawn) | <1.0 |
